Where these numbers come from: the supplement of paper PMC10065799

biological target: EPHB2 (UniProt P29323); assay: phosphorylation enrichment, bacterial display (enrichment ratio); higher = better substrate or ligand; peptides without Tyr show the background;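 also: 11-residue human phosphosite peptides and single-mutation variants displayed on the E. coli surface, counted by deep sequencing, each peptide's frequency after selection divided by its frequency in the unselected input library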;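 also: frequency after pTyr selection over input frequency; kinase dosed for 20-30% of maximal phosphorylation in three min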
Sequence (P29323 whole entry, looked up): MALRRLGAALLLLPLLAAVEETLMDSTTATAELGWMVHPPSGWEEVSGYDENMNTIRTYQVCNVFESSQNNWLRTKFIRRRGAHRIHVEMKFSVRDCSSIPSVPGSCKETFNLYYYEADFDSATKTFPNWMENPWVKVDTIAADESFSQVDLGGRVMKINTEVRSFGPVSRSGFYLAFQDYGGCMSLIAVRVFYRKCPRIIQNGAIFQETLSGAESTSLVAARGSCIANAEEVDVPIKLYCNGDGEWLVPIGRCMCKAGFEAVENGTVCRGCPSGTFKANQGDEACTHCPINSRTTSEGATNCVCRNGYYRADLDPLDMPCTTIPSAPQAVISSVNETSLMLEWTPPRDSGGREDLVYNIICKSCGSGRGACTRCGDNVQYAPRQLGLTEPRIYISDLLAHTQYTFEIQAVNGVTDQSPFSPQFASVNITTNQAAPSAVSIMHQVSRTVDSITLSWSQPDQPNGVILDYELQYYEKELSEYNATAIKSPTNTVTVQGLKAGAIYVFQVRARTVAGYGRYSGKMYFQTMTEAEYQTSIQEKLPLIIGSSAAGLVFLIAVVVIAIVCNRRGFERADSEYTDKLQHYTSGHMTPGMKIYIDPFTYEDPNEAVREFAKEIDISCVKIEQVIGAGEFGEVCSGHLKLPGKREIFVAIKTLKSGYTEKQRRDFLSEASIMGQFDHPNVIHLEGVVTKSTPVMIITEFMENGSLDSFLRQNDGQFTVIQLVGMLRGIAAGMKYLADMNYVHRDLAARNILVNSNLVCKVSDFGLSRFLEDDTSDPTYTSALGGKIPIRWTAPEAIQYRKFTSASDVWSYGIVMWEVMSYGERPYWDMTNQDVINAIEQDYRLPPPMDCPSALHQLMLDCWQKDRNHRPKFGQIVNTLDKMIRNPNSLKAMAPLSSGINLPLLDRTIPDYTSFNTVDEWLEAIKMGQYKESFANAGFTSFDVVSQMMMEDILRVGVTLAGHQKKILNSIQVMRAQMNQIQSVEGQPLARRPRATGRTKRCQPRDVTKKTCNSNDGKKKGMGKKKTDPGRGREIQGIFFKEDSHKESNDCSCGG
Metric: phosphorylation enrichment
I'd appreciate a reply containing only the number, no unit.

Consider the reported phosphorylation enrichment for these sequences:
APRKVYDTQDD [ZFPL1_Y215_R218Q]: 0.685
EASEQYLTKAS [NRCAM_Y739]: 0.425
CYVYYYSYLLK [PTEN_Y178_R173C]: 0.792
DRFANYIEKVR [DES_Y122]: 0.424

Find the recorded phosphorylation enrichment belonging to FVTCTYSPALN [TP53_Y126_S121F] and report it.
0.501

Find the recorded phosphorylation enrichment belonging to PVFQVYPLLNC [GATA1_Y78] and report it.
0.64

Find the recorded phosphorylation enrichment belonging to RRAKGYPIFLF [ITGB2_Y125_D128Y_YF] and report it.
0.739
